Target: pancreatic lipase (Sus scrofa)
Construct: gene PNLIP
Sequence (P00591 1-450): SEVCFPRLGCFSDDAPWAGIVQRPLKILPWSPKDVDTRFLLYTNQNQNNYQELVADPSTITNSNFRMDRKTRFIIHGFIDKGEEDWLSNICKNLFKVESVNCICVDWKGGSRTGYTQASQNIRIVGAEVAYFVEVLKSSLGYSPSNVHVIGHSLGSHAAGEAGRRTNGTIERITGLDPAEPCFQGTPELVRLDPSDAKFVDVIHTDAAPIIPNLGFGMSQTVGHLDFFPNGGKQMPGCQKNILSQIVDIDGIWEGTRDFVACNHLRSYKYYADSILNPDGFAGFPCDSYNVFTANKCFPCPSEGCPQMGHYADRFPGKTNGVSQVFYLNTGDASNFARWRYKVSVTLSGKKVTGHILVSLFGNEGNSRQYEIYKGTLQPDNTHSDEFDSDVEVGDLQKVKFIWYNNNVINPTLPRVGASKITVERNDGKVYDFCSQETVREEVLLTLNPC
Assay: fluorescent 4-MU oleate hydrolysis assay, type VI-S pancreatic lipase
Type: biochemical
Assignment: determine reported pIC50 for the given compounds.
Give bare numbers, as −log10 of the molar value.

Tested system pancreatic lipase (Sus scrofa); pIC50 recorded for O=C(O[C@@H]1Cc2c(O)cc(O)cc2O[C@@H]1c1cc(O)c(O)c2c(=O)c(O)cc([C@H]3Oc4cc(O)cc(O)c4C[C@H]3O)cc12)c1cc(O)c(O)c(O)c1 [compound 33, theaflavin-3′-O-gallate] was 6.89

Given the compound O=C(OC1Cc2c(O)cc(O)c(Cc3c(O)cc(O)c4c3OC(c3cc(O)c(O)c(O)c3)C(OC(=O)c3cc(O)c(O)c(O)c3)C4)c2OC1c1cc(O)c(O)c(O)c1)c1cc(O)c(O)c(O)c1 (centres unmarked) [compound 20, oolonghomobisflavan A] and test system pancreatic lipase (Sus scrofa), the measured pIC50 is 6.96

Query O=C(O[C@@H]1[C@@H](c2c(O)cc(O)c3c2O[C@H](c2cc(O)c(O)c(O)c2)[C@H](OC(=O)c2cc(O)c(O)c(O)c2)C3)c2c(O)cc(O)cc2O[C@@H]1c1cc(O)c(O)c(O)c1)c1cc(O)c(O)c(O)c1 [compound 29, prodelphinidin B2-3,3′-di-O-gallate] on pancreatic lipase (Sus scrofa); pIC50 returned: 7.00

List pIC50 for every entry below, keeping the order given.
1. O=C(O[C@@H]1Cc2c(O)cc(O)cc2O[C@@H]1c1cc(O)c(O)c(O)c1-c1c([C@H]2Oc3cc(O)cc(O)c3C[C@H]2OC(=O)c2cc(O)c(O)c(O)c2)cc(O)c(O)c1O)c1cc(O)c(O)c(O)c1 [compound 35, theasinensin A]
2. O=C(Oc1cc(O)cc2c1C[C@@H](OC(=O)c1cc(O)c(O)c(O)c1)[C@@H](c1cc(O)c(O)c(O)c1)O2)c1cc(O)c(O)c(O)c1 [compound 8, (−)-epigallocatechin-3,5-di-O-gallate]

1. 6.82
2. 6.96

----------
Molecular target: pancreatic lipase (Sus scrofa, UniProt P00591)
Construct: gene PNLIP
Experiment: biochemical
Details: inhibitor
Provide the reported pIC50 of each item.
One number for each entry, as −log10 of the molar value.

As a guide, the following entries are already answered.
Form: item `O=C(O[C@@H]1Cc2c(O)cc(O)c([C@H]3c4c(O)cc(O)cc4O[C@H](c4ccc(O)c(O)c4)[C@@H]3O)c2O[C@@H]1c1cc(O)c(O)c(O)c1)c1cc(O)c(O)c(O)c1` ; test system pancreatic lipase (Sus scrofa, UniProt P00591); pIC50: 6.80

pancreatic lipase (Sus scrofa, UniProt P00591) assay, molecule `O=C(O[C@@H]1[C@@H](c2c(O)cc(O)c3c2O[C@H](c2ccc(O)c(O)c2)[C@H](OC(=O)c2cc(O)c(O)c(O)c2)C3)c2c(O)cc(O)cc2O[C@@H]1c1cc(O)c(O)c(O)c1)c1cc(O)c(O)c(O)c1` , recorded pIC50 = 6.16

I looked up O=C(OC1Cc2c(O)cc(O)c(C(c3cc(O)c(O)c(O)c3)C(Cc3c(O)cc(O)cc3O)OC(=O)c3cc(O)c(O)c(O)c3)c2OC1c1cc(O)c(O)c(O)c1)c1cc(O)c(O)c(O)c1 (stereo not drawn) and its pIC50 for pancreatic lipase (Sus scrofa, UniProt P00591) was 6.89

Give pIC50 for each of the items listed below.
1. O=C(O[C@@H]1[C@@H](c2c(O)cc(O)c3c2O[C@H](c2cc(O)c(O)c(O)c2)[C@H](OC(=O)c2cc(O)c(O)c(O)c2)C3)c2c(O)cc(O)cc2O[C@@H]1c1ccc(O)c(O)c1)c1cc(O)c(O)c(O)c1
2. O=C(O[C@@H]1Cc2c(O)cc(O)c([C@H]3c4c(O)cc(O)cc4O[C@H](c4cc(O)c(O)c(O)c4)[C@@H]3O)c2O[C@@H]1c1ccc(O)c(O)c1)c1cc(O)c(O)c(O)c1
3. O=C(O[C@@H]1Cc2c(O)cc(O)c([C@@H]3c4c(O)cc(O)cc4O[C@H](c4ccc(O)c(O)c4)[C@H]3O)c2O[C@@H]1c1cc(O)c(O)c(O)c1)c1cc(O)c(O)c(O)c1

[6.03, 5.91, 6.72]

----------
Molecular target: pancreatic lipase (Sus scrofa, UniProt P00591)
Construct: gene PNLIP
Assay: biochemical
pIC50: −log10 of the molar value.
If the reported pIC50 equals or exceeds 5, assign YES. If not, assign NO.

Does the reported pIC50 for COc1cc(C(=O)O[C@@H]2Cc3c(O)cc(O)cc3O[C@@H]2c2ccc(O)c(O)c2)cc(O)c1O [compound 9, (−)-epicatechin 3-O-(3′-O-methyl)-gallat] fall at or above the 5 mark? YES

Test whether the compound `Oc1cc(O)c2c(c1)O[C@H](c1cc(O)c(O)c(O)c1-c1c([C@H]3Oc4cc(O)cc(O)c4C[C@H]3O)cc(O)c(O)c1O)[C@H](O)C2` records pIC50 of 5 or higher. NO

Threshold query (pIC50 >= 5) on `Oc1cc(O)c2c(c1)O[C@H](c1cc(O)c(O)c(O)c1)[C@@H](O)[C@@H]2c1c(O)cc(O)c2c1O[C@H](c1cc(O)c(O)c(O)c1)[C@H](O)C2` YES

Is reported pIC50 greater than or equal to 5 here: `Oc1cc(O)c2c(c1)O[C@H](c1cc(O)c(O)c(O)c1)[C@H](O)[C@H]2c1c(O)cc(O)c2c1O[C@H](c1cc(O)c(O)c(O)c1)[C@H](O)C2` YES

Decide: pIC50 of `Oc1cc(O)c2c(c1)O[C@H](c1ccc(O)c(O)c1)[C@@H](O)[C@@H]2c1c(O)cc(O)c2c1O[C@H](c1ccc(O)c(O)c1)[C@H](O)C2` >= 5? NO

----------
Target: pancreatic lipase (Sus scrofa)
Construct: gene PNLIP
Test: biochemical
VALUE TYPE: pIC50
Give bare numbers, as −log10 of the molar value.

These recorded examples may help you get a feel for the data.
The compound listed as O=C(O[C@@H]1Cc2c(O)cc(O)cc2O[C@H]1c1cc(O)c(O)c(O)c1)c1cc(O)c(O)c(O)c1 [compound 6, (−)-gallocatechin-3-O-gallate (GCG)] has a reported pIC50 of 6.24

Reported pIC50 for O=C(O[C@@H]1Cc2c(O)cc(O)cc2O[C@@H]1c1cc(O)c(O)c(O)c1-c1c([C@H]2Oc3cc(O)cc(O)c3C[C@H]2O)cc(O)c(O)c1O)c1cc(O)c(O)c(O)c1 [compound 36, theasinensin B] was 6.52

Please look at the following compound next.
In plain terms, Oc1cc(O)c2c(c1)O[C@H](c1ccc(O)c(O)c1)[C@@H](O)[C@@H]2c1c(O)cc(O)c2c1O[C@H](c1ccc(O)c(O)c1)[C@@H](O)C2 [compound 24, procyanidin B3] has a documented pIC50 of 5.48

----------
Exercise: for every item that follows, state its recorded IC50.
Target: pancreatic lipase (Sus scrofa, UniProt P00591)
Construct: gene PNLIP
Sequence (P00591 1-450): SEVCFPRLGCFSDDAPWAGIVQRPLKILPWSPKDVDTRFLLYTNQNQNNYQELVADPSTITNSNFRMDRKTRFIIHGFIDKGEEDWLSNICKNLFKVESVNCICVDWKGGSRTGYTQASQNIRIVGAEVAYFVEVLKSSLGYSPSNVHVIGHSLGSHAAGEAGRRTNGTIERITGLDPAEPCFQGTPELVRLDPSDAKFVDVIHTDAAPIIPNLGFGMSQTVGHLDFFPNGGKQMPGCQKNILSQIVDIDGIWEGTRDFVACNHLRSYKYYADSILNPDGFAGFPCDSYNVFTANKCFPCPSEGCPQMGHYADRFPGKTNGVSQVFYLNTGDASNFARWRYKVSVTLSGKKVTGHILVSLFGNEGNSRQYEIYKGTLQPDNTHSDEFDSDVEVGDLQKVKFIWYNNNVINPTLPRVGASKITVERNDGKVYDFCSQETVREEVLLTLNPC
Assay: biochemical
One number for each entry, in µM.

For the compound O=C(O[C@@H]1Cc2c(O)cc(O)cc2O[C@@H]1c1ccc(O)cc1)c1cc(O)c(O)c(O)c1 [compound 15, (−)-epiafzelechin 3-O-gallate] , the measured IC50 on pancreatic lipase (Sus scrofa, UniProt P00591) was 2.81

// input: 3 compounds below; output: IC50 for each
1. Oc1cc(O)c2c(c1)O[C@H](c1ccc(O)c(O)c1)[C@H](O)[C@H]2c1c(O)cc(O)c2c1O[C@H](c1ccc(O)c(O)c1)[C@H](O)C2
2. O=C(/C=C/c1ccc(O)cc1)O[C@@H]1Cc2c(O)cc(O)cc2O[C@@H]1c1cc(O)c(O)c(O)c1 [compound 10, (−)-epigallocatechin-3-O-p-coumaroate]
3. Oc1cc(O)c2c(c1)O[C@H](c1ccc(O)c(O)c1)[C@@H](O)[C@@H]2c1c(O)cc(O)c2c1O[C@H](c1cc(O)c(O)c(O)c1)[C@H](O)C2 [compound 16, (+)-catechin (4α-8) (−)-epigallocatechin]

[8.75, 0.97, 8.7]
